Numbers sourced from ChEMBL document CHEMBL3612038.

Item-by-item account of Tmax
- EXPERIMENT_NOTES: Tmax in New-Zealand rabbit at 33 mg/kg dosed through vaginal administration by LC-MS/MS method
- Type: ADME, organism-based, Oryctolagus cuniculus
- ASSAY_CONDITIONS: in vivo
Hi! Could you send only the number? It should be in min, unit omitted.

smiles_notation=CCCCNC(=S)N1CCN(CCC(=O)c2ccccc2)CC1 readout=Tmax recorded_measurement=45

Proceeding to the next compound to report its Tmax.
GET /value?item= CCCCCCCCCc1ccc(OCCOCCOCCOCCOCCOCCOCCOCCOCCO)cc1 &field=Tmax returns 60

* * *

- EXPERIMENT_NOTES: AUC (0 to infinity) in New-Zealand rabbit at 33 mg/kg dosed through vaginal administration by LC-MS/MS method
- Type: ADME, organism-based, Oryctolagus cuniculus
- Design: dose 33 mg/kg, time infinity
- ASSAY_CONDITIONS: in vivo
Item-by-item account of AUC(0-inf)
Hi! Could you send only the number? It should be in ng·h/mL, unit omitted.

smiles_notation=CCCCCCCCCc1ccc(OCCOCCOCCOCCOCCOCCOCCOCCOCCO)cc1 recorded_measurement=12.9

Proceeding to the next molecule to report its AUC(0-inf).
GET /value?item= CCCCNC(=S)N1CCN(CCC(=O)c2ccccc2)CC1 &field=AUC(0-inf) returns 14.7
